- Test system: Escherichia coli
- test_description: Induction of Escherichia coli MTCC 1089 DNA cleavage at 50 ug after 2 hr by agarose gel electrophoresis
Activity calls are given as the source filed them. The calls are words filed in the database; no cut-off is given here.
Your response should consist of one outcome taken from True (active), False (inactive)

Per the records of this test, what outcome belongs to CCN(CC)c1cccc(OCc2cc(=O)oc3ccc(Br)cc23)c1 ?
True

What do you get for CCN(CC)c1cccc(OCc2cc(=O)oc3ccc4ccccc4c23)c1 ?
False

What do you get for O=c1cc(COc2cccc(OCc3cc(=O)oc4ccc(Br)cc34)c2)c2cc(Br)ccc2o1 ?
True

What do you get for Cc1ccc2c(COc3cccc(O)c3)cc(=O)oc2c1 ?
False

* * *

- Tested on: Aspergillus niger
- test_description: Antifungal activity against Aspergillus niger after 3 to 4 days by serial dilution method
- Type: functional
// label = Satisfied if inhibition zone (IZ) is not less than 20 mm, otherwise Not satisfied

Would you please look over these solved cases?
CCN(CC)c1cccc(OCc2cc(=O)oc3c2ccc2ccccc23)c1 ... Not satisfied
Cc1ccc2c(COc3cccc(OCc4cc(=O)oc5cc(C)ccc45)c3)cc(=O)oc2c1 ... Not satisfied
CCN(CC)c1cccc(OCc2cc(=O)oc3cc(C)ccc23)c1 ... Not satisfied
O=c1cc(COc2cccc(O)c2)c2cc(Br)ccc2o1 ... Satisfied
CC(=O)Nc1cccc(OCc2cc(=O)oc3cc(C)ccc23)c1 ... Not satisfied

Test whether the compound CC(=O)Nc1cccc(OCc2cc(=O)oc3ccc4ccccc4c23)c1 records inhibition zone (IZ) of 20 mm or higher.
Not satisfied

* * *

- Test system: Aspergillus fumigatus
- test_description: Antifungal activity against Aspergillus fumigatus after 3 to 4 days by serial dilution method
- Format: functional
- experimental_setup: Aspergillus fumigatus
value_kind: MIC (µg/mL)
Lab book: enter the figure in µg/mL, no units written.

# example entries with known answers
O=c1cc(COc2cccc(O)c2)c2c(ccc3ccccc32)o1 ... 12.5
O=c1cc(COc2cccc(O)c2)c2cc(Cl)ccc2o1 ... 6.25

Field: MIC (Aspergillus fumigatus). Entry: CCN(CC)c1cccc(OCc2cc(=O)oc3ccc(Cl)cc23)c1
6.25

What do you get for CCN(CC)c1cccc(OCc2cc(=O)oc3ccc(OC)cc23)c1 ?
6.25

What do you get for O=c1cc(COc2cccc(O)c2)c2ccc3ccccc3c2o1 ?
12.5

What do you get for CC(=O)Nc1cccc(OCc2cc(=O)oc3ccc(C)cc23)c1 ?
12.5

* * *

- Tested on: Escherichia coli
- test_description: Antibacterial activity against Escherichia coli MTCC 1089 after 24 hr by disk diffusion method
- Format: functional
Catalogue of inhibition zone (IZ) values
Lab book: enter the figure in mm, no units written.

COc1ccc2oc(=O)cc(COc3cccc(NC(C)=O)c3)c2c1 ... 17
CC(=O)Nc1cccc(OCc2cc(=O)oc3ccc(Br)cc23)c1 ... 14

Looking for the measured inhibition zone (IZ) of CC(=O)Nc1cccc(OCc2cc(=O)oc3ccc4ccccc4c23)c1 , can you help?
13

* * *

- Test system: Aspergillus niger
- test_description: Induction of Aspergillus niger DNA cleavage at 50 ug after 2 hr by agarose gel electrophoresis
Active and inactive are the calls of the source. The rule behind the calls is not given here.
Your response should consist of one outcome taken from T (active), F (inactive)

Would you please look over these solved cases?
CCN(CC)c1cccc(OCc2cc(=O)oc3ccc4ccccc4c23)c1 ... F
CC(=O)Nc1cccc(OCc2cc(=O)oc3ccc4ccccc4c23)c1 ... F
COc1ccc2oc(=O)cc(COc3cccc(OCc4cc(=O)oc5ccc(OC)cc45)c3)c2c1 ... T
O=c1cc(COc2cccc(O)c2)c2c(ccc3ccccc32)o1 ... F
CCN(CC)c1cccc(OCc2cc(=O)oc3ccc(Br)cc23)c1 ... T
CCN(CC)c1cccc(OCc2cc(=O)oc3ccc(C)cc23)c1 ... F

Per the records of this test, what outcome belongs to CCN(CC)c1cccc(OCc2cc(=O)oc3c2ccc2ccccc23)c1 ?
F

What do you get for O=c1cc(COc2cccc(OCc3cc(=O)oc4ccc5ccccc5c34)c2)c2c(ccc3ccccc32)o1 ?
F

* * *

Catalogue of MIC values
- Test system: Pseudomonas aeruginosa
- test_description: Antibacterial activity against Pseudomonas aeruginosa MTCC 1034 after 24 hr by disk diffusion method
- Assay type: functional
- experimental_setup: Pseudomonas aeruginosa, MTCC 1034, 24 h
Lab book: enter the figure in µg/mL, no units written.

# example entries with known answers
COc1ccc2oc(=O)cc(COc3cccc(O)c3)c2c1 ... 6.25
O=c1cc(COc2cccc(OCc3cc(=O)oc4c3ccc3ccccc34)c2)c2ccc3ccccc3c2o1 ... 12.5
Cc1ccc2c(COc3cccc(OCc4cc(=O)oc5cc(C)ccc45)c3)cc(=O)oc2c1 ... 25
CCN(CC)c1cccc(OCc2cc(=O)oc3cc(C)ccc23)c1 ... 12.5
CC(=O)Nc1cccc(OCc2cc(=O)oc3ccc(Br)cc23)c1 ... 6.25
Cc1ccc2oc(=O)cc(COc3cccc(O)c3)c2c1 ... 25

Field: MIC (Pseudomonas aeruginosa). Entry: O=c1cc(COc2cccc(O)c2)c2ccc3ccccc3c2o1
6.25

What do you get for Cc1ccc2c(COc3cccc(O)c3)cc(=O)oc2c1 ?
12.5

What do you get for CC(=O)Nc1cccc(OCc2cc(=O)oc3cc(C)ccc23)c1 ?
12.5

* * *

- Tested on: Penicillium chrysogenum
- test_description: Antifungal activity against Penicillium chrysogenum after 3 to 4 days by serial dilution method
- Assay type: functional
value_kind: inhibition zone (IZ) (mm)
Lab book: enter the figure in mm, no units written.

# example entries with known answers
CC(=O)Nc1cccc(OCc2cc(=O)oc3ccc(Br)cc23)c1 ... 20
CCN(CC)c1cccc(OCc2cc(=O)oc3ccc(OC)cc23)c1 ... 23
O=c1cc(COc2cccc(OCc3cc(=O)oc4ccc(Cl)cc34)c2)c2cc(Cl)ccc2o1 ... 20
Cc1ccc2oc(=O)cc(COc3cccc(O)c3)c2c1 ... 18
CCN(CC)c1cccc(OCc2cc(=O)oc3ccc(Cl)cc23)c1 ... 23

Field: inhibition zone (IZ) (Penicillium chrysogenum). Entry: CCN(CC)c1cccc(OCc2cc(=O)oc3cc(C)ccc23)c1
18

What do you get for CCN(CC)c1cccc(OCc2cc(=O)oc3c2ccc2ccccc23)c1 ?
17

What do you get for CCN(CC)c1cccc(OCc2cc(=O)oc3ccc4ccccc4c23)c1 ?
17

What do you get for CC(=O)Nc1cccc(OCc2cc(=O)oc3c2ccc2ccccc23)c1 ?
18

* * *

- Test system: Bacillus subtilis
- test_description: Antibacterial activity against Bacillus subtilis MTCC 297 after 24 hr by disk diffusion method
- Type: functional
- experimental_setup: Bacillus subtilis, MTCC 297, 24 h
Catalogue of MIC values
Lab book: enter the figure in µg/mL, no units written.

Looking for the measured MIC of CCN(CC)c1cccc(OCc2cc(=O)oc3ccc(Br)cc23)c1 , can you help?
6.25

What do you get for O=c1cc(COc2cccc(O)c2)c2cc(Cl)ccc2o1 ?
6.25

What do you get for CCN(CC)c1cccc(OCc2cc(=O)oc3ccc4ccccc4c23)c1 ?
25

What do you get for Cc1ccc2c(COc3cccc(O)c3)cc(=O)oc2c1 ?
12.5

What do you get for O=c1cc(COc2cccc(OCc3cc(=O)oc4ccc5ccccc5c34)c2)c2c(ccc3ccccc32)o1 ?
25

What do you get for Cc1ccc2oc(=O)cc(COc3cccc(O)c3)c2c1 ?
12.5

* * *

- System: Bacillus subtilis
- test_description: Antibacterial activity against Bacillus subtilis MTCC 297 after 24 hr by disk diffusion method
- Assay type: functional
- experimental_setup: Bacillus subtilis, MTCC 297, 24 h
Catalogue of MIC values
Lab book: enter the figure in µg/mL, no units written.

O=c1cc(COc2cccc(OCc3cc(=O)oc4c3ccc3ccccc34)c2)c2ccc3ccccc3c2o1 ... 25

Looking for the measured MIC of CCN(CC)c1cccc(OCc2cc(=O)oc3ccc(OC)cc23)c1 , can you help?
6.25

What do you get for O=C(O)c1cn(C2CC2)c2cc(N3CCNCC3)c(F)cc2c1=O ?
6.25

What do you get for CC(=O)Nc1cccc(OCc2cc(=O)oc3ccc(Cl)cc23)c1 ?
6.25

* * *

- Tested on: Escherichia coli
- test_description: Induction of Escherichia coli MTCC 1089 DNA cleavage at 50 ug after 2 hr by agarose gel electrophoresis
The source made the active and inactive calls. The rule behind the calls is not given here.
Your response should consist of one outcome taken from true (active), false (inactive)

Would you please look over these solved cases?
O=c1cc(COc2cccc(OCc3cc(=O)oc4ccc5ccccc5c34)c2)c2c(ccc3ccccc32)o1 ... false
O=c1cc(COc2cccc(O)c2)c2c(ccc3ccccc32)o1 ... false
COc1ccc2oc(=O)cc(COc3cccc(NC(C)=O)c3)c2c1 ... true
O=c1cc(COc2cccc(O)c2)c2cc(Br)ccc2o1 ... true

Per the records of this test, what outcome belongs to CC(=O)Nc1cccc(OCc2cc(=O)oc3ccc(C)cc23)c1 ?
false

What do you get for CCN(CC)c1cccc(OCc2cc(=O)oc3c2ccc2ccccc23)c1 ?
false

What do you get for O=c1cc(COc2cccc(O)c2)c2cc(Cl)ccc2o1 ?
true
